Reported pIC50 values for a set of compounds
assayed_system: human PD-L1 (Homo sapiens (Human), UniProt Q9NZQ7)
Sequence (Q9NZQ7 19-239): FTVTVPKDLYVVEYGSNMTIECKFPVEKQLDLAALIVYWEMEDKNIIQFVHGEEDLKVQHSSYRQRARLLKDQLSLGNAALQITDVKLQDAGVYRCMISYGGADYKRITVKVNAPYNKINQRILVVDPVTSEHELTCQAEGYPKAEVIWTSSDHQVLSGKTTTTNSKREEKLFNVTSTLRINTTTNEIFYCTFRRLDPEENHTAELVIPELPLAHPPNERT
test_name: Enzyme-Linked Immunosorbent Assay (ELISA), PD-1/PD-L1 binding
condition_info: PD-1/PD-L1 ELISA, human PD-L1 coated plates, Table 1
pIC50: −log10 of the molar value.

| compound | pIC50 |
| --- | --- |
| COc1cc(-c2cccc(-c3cccc(NC(=O)c4ccc(Cl)cn4)c3C)c2C)cc(F)c1CN1CC(C(=O)O)C1 [Example 1.369] | 6.00 to 8.00 |

Noted for COc1cc(-c2cccc(-c3cccc(NC(=O)c4c[nH]c(=O)n(C)c4=O)c3C)c2C)cc(F)c1CNC[C@@H]1CCC(=O)N1 [Example 1.201] : its pIC50 reads > 8.00

What the record says about COc1cc(-c2cccc(-c3cccc(NC(=O)c4c[nH]c(=O)n(C)c4=O)c3C)c2C)cc(F)c1CNCC(N)=O [Example 1.252] : pIC50 is 6.00 to 8.00

Field pIC50 (entry COc1cc(-c2cccc(-c3cccc(NC(=O)c4ccc(OCC(N)=O)cn4)c3C)c2C)cc(F)c1CN [Example 1.296] ) reads > 8.00

Memo: COc1cc(-c2cccc(-c3cccc(NC(=O)C4CCCO4)c3C)c2C)cc(F)c1CN1CC(C(=O)O)C1 (stereo not drawn) [Example 1.341] , reported pIC50: 6.00 to 8.00

// sample COc1cc(-c2cccc(-c3cccc(NC(=O)c4ccc(C(=O)O)cn4)c3C)c2C)cc(F)c1CN [Example 1.352] , its pIC50 was 6.00 to 8.00

Record summary for COc1cc(-c2cccc(-c3cccc(NC(=O)c4ccc(C(=O)N(C)C)cn4)c3C)c2C)cc(F)c1CN [Example 1.306] : reported pIC50 = > 8.00

Measured values drawn from patent US11266643B2 for this set.
